Below is a list of entries, each paired with its recorded Cmax value.
test: Cmax in Brown Norway rat at 3 mg/kg, po or 1 mg/kg, iv by LC-MS/MS analysis; format: ADME, organism-based; conditions: in vivo
Respond with the bare value in µM.

Look at this compound and give its reported Cmax. "O=C(Nc1cc(C2CC2)on1)n1ccc2cc(Oc3ncnc4c3CNC4)ccc21"
11

Note: attention shifts to another entry.
Look at this compound and give its reported Cmax. "C[C@H]1Cc2c(ncnc2Oc2ccc3c(ccn3C(=O)Nc3cc(C4(C)CC4)n[nH]3)c2)CN1"
0.514

* * *

Below is a list of entries, each paired with its recorded half-life value.
test: Half life in Brown Norway rat at 3 mg/kg, po or 1 mg/kg, iv by LC-MS/MS analysis; type: ADME, organism-based; conditions: in vivo
Respond with the bare value in min.

Look at this molecule and give its reported half-life. "C[C@H]1Cc2c(ncnc2Oc2ccc3c(ccn3C(=O)Nc3cc(C4(C)CC4)n[nH]3)c2)CN1"
138

Note: attention shifts to another entry.
Look at this molecule and give its reported half-life. "O=C(Nc1cc(C2CC2)on1)n1ccc2cc(Oc3ncnc4c3CNC4)ccc21"
72

* * *

test: Cmax in Brown Norway rat at 10 mg/kg, po or 1 mg/kg, iv by LC-MS/MS analysis; assay type: ADME, organism-based; conditions: in vivo
assay-metric: Cmax (nM)
Respond with the bare value in nM.

Look at this molecule and give its reported Cmax. "CC1(c2cc(NC(=O)n3ccc4cc(Oc5ncnc6c5CCNC6)ccc43)n[nH]2)CC1"
505

* * *

test system: Rattus norvegicus; assay: AUC (0 to 8 hrs) in Brown Norway rat at 3 mg/kg, po by LC-MS/MS analysis; type: ADME, organism-based; design: dose 3 mg/kg, time < 8 hr, route oral; settings: in vivo
Below is a list of entries, each paired with its recorded AUC value.
Respond with the bare value in µM·h.

Look at this compound and give its reported AUC. "C[C@H]1Cc2c(ncnc2Oc2ccc3c(ccn3C(=O)Nc3cc(C4(C)CC4)n[nH]3)c2)CN1"
2.49

Continuing:
Look at this compound and give its reported AUC. "O=C(Nc1cc(C2CC2)on1)n1ccc2cc(Oc3ncnc4c3CNC4)ccc21"
29.4

* * *

assay: Half life in Brown Norway rat at 10 mg/kg, po or 1 mg/kg, iv by LC-MS/MS analysis; format: ADME, organism-based; conditions: in vivo
assay-metric: half-life (h)
Respond with the bare value in h.

Look at this compound and give its reported half-life. "CC1(c2cc(NC(=O)n3ccc4cc(Oc5ncnc6c5CCNC6)ccc43)n[nH]2)CC1"
2.7

* * *

assay: Volume of distribution at steady state in Brown Norway rat at 3 mg/kg, po or 1 mg/kg, iv by LC-MS/MS analysis; format: ADME, organism-based; conditions: in vivo, read-out: Vdss
Below is a list of entries, each paired with its recorded Vd value.
Write the numeric value and follow it with the unit.

Look at this compound and give its reported Vd. "C[C@H]1Cc2c(ncnc2Oc2ccc3c(ccn3C(=O)Nc3cc(C4(C)CC4)n[nH]3)c2)CN1"
5.6 L/kg

Note: attention shifts to another entry.
Look at this compound and give its reported Vd. "O=C(Nc1cc(C2CC2)on1)n1ccc2cc(Oc3ncnc4c3CNC4)ccc21"
0.5 L/kg

* * *

assay: Aqueous solubility of the compound at pH 6.8; conditions: aqueous medium
assay-metric: solubility (µM)
Respond with the bare value in µM.

Sample records with solubility:
Look at this compound and give its reported solubility. "CC(C)(C)c1cc(NC(=O)n2ccc3cc(Oc4ncnc5c4CNC5)ccc32)on1"
232

Entry to check: "CC(C)(C)c1cc(NC(=O)n2ccc3cc(Oc4ncnc5c4CCNC5)ccc32)no1"
167

Entry to check: "O=C(Nc1cccc(C(F)(F)F)c1)n1ccc2cc(Oc3ncnc4c3CCNC4)ccc21"
84

Entry to check: "CC1(c2cc(NC(=O)n3ccc4cc(Oc5ncnc6c5CNC6)ccc43)n[nH]2)CC1"
489

Entry to check: "CC(C)c1cc(NC(=O)n2ccc3cc(Oc4ncnc5c4CNC5)ccc32)no1"
37

Entry to check: "CC(C)(C)c1cc(NC(=O)n2ccc3cc(Oc4ncnc5c4CCNC5)ccc32)n[nH]1"
682

Continuing:
Look at this compound and give its reported solubility. "Cc1cncc(NC(=O)n2ccc3cc(Oc4ncnc5c4CCNC5)ccc32)c1"
190

Entry to check: "CC(C)(C)c1cc(NC(=O)n2ccc3cc(Oc4ncnc5c4CNC5)ccc32)no1"
20

Entry to check: "CNCc1cc(Oc2ccc3c(ccn3C(=O)Nc3cccc(C(F)(F)F)c3)c2)ncn1"
64

Entry to check: "CC1(c2cc(NC(=O)n3ccc4cc(Oc5ncnc6c5CCNC6)ccc43)n[nH]2)CC1"
252

Entry to check: "O=C(Nc1cc(C2CC2)on1)n1ccc2cc(Oc3ncnc4c3CNC4)ccc21"
110

Entry to check: "CC(C)c1cc(NC(=O)n2ccc3cc(Oc4ncnc5c4CCNC5)ccc32)n[nH]1"
833
